- Target System: T1, human amylin-3(a) receptor (human, UniProt P30988 25-474; O60896 24-148)
- T1 sequence (looked up) 1: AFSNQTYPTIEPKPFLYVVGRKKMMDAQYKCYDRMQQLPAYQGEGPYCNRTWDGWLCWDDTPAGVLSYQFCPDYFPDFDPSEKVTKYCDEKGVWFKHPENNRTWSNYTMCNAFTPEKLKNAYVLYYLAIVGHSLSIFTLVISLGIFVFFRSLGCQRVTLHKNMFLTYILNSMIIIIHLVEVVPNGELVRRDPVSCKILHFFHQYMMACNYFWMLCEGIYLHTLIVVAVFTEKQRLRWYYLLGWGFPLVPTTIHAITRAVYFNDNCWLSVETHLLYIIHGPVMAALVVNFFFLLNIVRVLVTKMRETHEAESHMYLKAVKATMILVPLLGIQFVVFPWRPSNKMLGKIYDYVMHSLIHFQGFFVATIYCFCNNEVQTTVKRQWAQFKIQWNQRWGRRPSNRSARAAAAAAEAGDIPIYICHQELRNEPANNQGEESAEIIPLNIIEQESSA
- T1 sequence (looked up) 2: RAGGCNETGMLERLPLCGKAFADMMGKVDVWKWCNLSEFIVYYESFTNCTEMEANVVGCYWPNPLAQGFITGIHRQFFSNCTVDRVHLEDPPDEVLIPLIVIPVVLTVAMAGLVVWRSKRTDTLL
- Test Name: cell-based or functional assay
Numbered stars: 1 amine (or outer) side, 2 acyl side, 3 side chain; on linkers, the order of the positions; unused ones are H or OH. Square brackets hold non-standard residues; d marks the D form. Side chains are listed from the residue outwards. * marks the point of attachment. C18 diacid = O=C(O)CCCCCCCCCCCCCCCCC(=O)*; γGlu = O=C(O)[C@H](CCC(=O)[*:2])N[*:1]; Chem. 28 = not defined here; AEEA = NCCOCCOCC(=O)O; Aib = CC(C)(N)C(=O)O
# Lookup of reported hAMYR3 Potency, 1% HSA, EC50 [pM] keyed by entry
All answers are understood in pM, so give the number only.

In the examples that follow, each entry is paired with its recorded hAMYR3 Potency, 1% HSA, EC50 [pM].
Compound 67 (peptide) peptide: Y[Aib]EGTFTSDYSILLEEQAAREFIEWLLAGGPSRGEASELSTAALGRLSAELHK([AEEA-AEEA-γGlu-C18 diacid])LATLPRTETGSGSP-NH2: 190
Compound 55 (reading uncertain) peptide: Y[Aib]EGTFTSDYSILLEEQAAREFIEWLLAGGPSSGAGQAPGQAPGASHLSTAQTQRLSAK(Chem. 28)LHRLATLPRTETGSGSP-NH2: 34
Compound 43 (reading uncertain) peptide: H[Aib]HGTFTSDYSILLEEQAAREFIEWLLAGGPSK(Chem. 28)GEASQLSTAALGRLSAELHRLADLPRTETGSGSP-NH2: 56.5
Compound 84 (peptide) peptide: H[Aib]HGTFTSDYSILLEEQAAREFIEWLLAGGPSSGEASHLSTAQTQRLSAELHRLATLPK([AEEA-AEEA-γGlu-C18 diacid])TETGSGSP-NH2: 175
Compound 69 (peptide) peptide: H[Aib]HGTFTSDYSILLEEQAAREFIEWLLAGGPSRGEASHLSTAQTQRLSAELHK([AEEA-AEEA-γGlu-C18 diacid])LATLPRTETGSGSP-NH2: 78.9
Compound 99 (not fully specified (residue 62)) peptide: Y[Aib]EGTFTSDYSILLEEQAAREFIEWLLAGGPSSGALQAPGQAPLASHLSTAQTQRLSAELHKLATLPRTETGSGSP-NH2: 129
Compound 86 (peptide) peptide: H[Aib]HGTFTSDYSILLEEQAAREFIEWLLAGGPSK([AEEA-AEEA-γGlu-C18 diacid])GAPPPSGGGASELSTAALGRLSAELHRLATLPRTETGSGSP-NH2: 58.4

Let's switch to this binder now.
IN: State its hAMYR3 Potency, 1% HSA, EC50 [pM]: Compound 39 (reading uncertain) peptide: Y[Aib]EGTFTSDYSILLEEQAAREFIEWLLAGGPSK(Chem. 28)GGQEPGQEPGEASHLSTAQTQRLSAELHELATLPRTETGSGSP-NH2
OUT: 140
